Cited source for all entries: patent US20250250357A1

Measured OD450 values are reported for all entries that follow.
# MEASUREMENT TARGET: T1, human MSLN-R3-his protein (human, UniProt Q13421 487-598)
# T1 construct: also called human MSLN-R3 protein; hMSLN-R3-his; not shown: His tag
# T1 sequence (Q13421 495-606): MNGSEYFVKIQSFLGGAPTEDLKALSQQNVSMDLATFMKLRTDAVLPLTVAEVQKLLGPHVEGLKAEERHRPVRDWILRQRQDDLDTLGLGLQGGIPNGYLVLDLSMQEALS
# METHOD: ELISA, coated antigen; antibody 100 nM
MEASURED QUANTITY: OD450 (OD450)

INSERT INTO measurements (binder, measured_quantity, reading_unit, readout_value) VALUES
  ('S009-F3.7.3 (antibody, human IgG1, kappa, V domains shown, Human-murine chimeric antibody: murine VH/VL on human IgG1 heavy chain constant region and human kappa constant region) VH: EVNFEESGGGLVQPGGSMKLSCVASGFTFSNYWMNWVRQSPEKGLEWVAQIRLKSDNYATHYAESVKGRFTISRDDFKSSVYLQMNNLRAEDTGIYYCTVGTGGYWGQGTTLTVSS VL: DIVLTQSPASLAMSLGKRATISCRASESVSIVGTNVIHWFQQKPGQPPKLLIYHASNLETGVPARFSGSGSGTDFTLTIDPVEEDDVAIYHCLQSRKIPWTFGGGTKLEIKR', 'OD450', 'OD450', 2.16),
  ('S009-F3.74.20 (antibody, human IgG1, kappa, V domains shown, Human-murine chimeric antibody, human IgG1/kappa constant regions) VH: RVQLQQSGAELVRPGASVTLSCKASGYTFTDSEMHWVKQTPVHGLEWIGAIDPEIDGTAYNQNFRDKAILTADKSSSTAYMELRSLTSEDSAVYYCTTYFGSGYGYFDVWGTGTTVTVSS VL: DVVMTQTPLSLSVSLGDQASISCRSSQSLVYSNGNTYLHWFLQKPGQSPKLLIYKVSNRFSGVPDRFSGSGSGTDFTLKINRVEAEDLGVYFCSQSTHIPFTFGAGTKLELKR', 'OD450', 'OD450', 2.06),
  ('S009-F3.38.10 (antibody, human IgG1, kappa, V domains shown, Human-murine chimeric antibody, human IgG1/kappa constant regions) VH: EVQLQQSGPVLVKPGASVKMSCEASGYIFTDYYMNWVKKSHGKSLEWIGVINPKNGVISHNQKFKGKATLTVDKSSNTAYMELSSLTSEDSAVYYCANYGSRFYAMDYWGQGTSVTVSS VL: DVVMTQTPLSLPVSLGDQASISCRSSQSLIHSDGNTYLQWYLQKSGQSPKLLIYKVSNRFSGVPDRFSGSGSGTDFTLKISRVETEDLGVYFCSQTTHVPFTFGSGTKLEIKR', 'OD450', 'OD450', 2.05),
  ('S009-F3.80.22 (antibody, human IgG1, kappa, V domains shown, Human-murine chimeric antibody, human IgG1/kappa constant regions) VH: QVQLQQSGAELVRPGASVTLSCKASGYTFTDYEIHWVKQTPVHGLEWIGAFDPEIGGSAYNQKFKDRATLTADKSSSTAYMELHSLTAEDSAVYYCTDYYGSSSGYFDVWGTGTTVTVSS VL: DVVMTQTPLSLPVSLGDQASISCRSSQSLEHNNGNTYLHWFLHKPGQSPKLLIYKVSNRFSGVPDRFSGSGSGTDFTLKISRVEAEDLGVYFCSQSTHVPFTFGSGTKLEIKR', 'OD450', 'OD450', 2.02),
  ('S009-F3.45.21 (antibody, human IgG1, kappa, V domains shown, Human-murine chimeric antibody, human IgG1/kappa constant regions) VH: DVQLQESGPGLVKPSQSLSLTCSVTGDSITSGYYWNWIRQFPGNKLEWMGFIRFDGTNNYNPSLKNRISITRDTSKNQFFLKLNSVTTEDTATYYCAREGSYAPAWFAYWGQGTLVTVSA VL: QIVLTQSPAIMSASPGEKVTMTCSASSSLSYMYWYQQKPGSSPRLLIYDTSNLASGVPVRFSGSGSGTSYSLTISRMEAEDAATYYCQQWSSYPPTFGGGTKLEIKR', 'OD450', 'OD450', 0.09),
  ('S009-F3.16.1 (antibody, human IgG1, kappa, V domains shown, Human-murine chimeric antibody, human IgG1/kappa constant regions) VH: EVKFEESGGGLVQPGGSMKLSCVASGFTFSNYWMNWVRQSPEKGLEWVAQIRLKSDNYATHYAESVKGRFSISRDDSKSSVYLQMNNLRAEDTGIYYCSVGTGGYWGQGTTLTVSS VL: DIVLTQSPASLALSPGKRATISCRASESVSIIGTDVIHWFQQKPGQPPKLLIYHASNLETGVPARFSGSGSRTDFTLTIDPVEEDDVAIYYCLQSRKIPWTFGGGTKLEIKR', 'OD450', 'OD450', 1.92);
